# system: Transcriptional enhancer factor TEF-3 (Homo sapiens)
# Sequence (Q15561 whole entry, the tested form may be a part): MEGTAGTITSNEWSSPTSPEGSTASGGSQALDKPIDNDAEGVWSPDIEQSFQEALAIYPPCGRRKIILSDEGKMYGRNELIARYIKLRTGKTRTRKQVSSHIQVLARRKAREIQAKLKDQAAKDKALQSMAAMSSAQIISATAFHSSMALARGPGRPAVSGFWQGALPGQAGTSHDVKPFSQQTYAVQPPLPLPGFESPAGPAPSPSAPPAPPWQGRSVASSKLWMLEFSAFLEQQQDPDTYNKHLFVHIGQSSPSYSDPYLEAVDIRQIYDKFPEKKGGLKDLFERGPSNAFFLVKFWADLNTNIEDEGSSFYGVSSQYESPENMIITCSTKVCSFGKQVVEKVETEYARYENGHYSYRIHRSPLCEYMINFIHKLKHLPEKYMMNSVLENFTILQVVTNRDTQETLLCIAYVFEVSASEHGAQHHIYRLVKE
# test_name: Inhibition of Gal4-fused TEAD4 (unknown origin) interaction with YAP expressed in human HeLa cells assessed as basal transcriptional activity level after 6 hrs by nanoluciferase reporter gene assay
pIC50: −log10 of the molar value.
quantity: pIC50

1) Cc1ccc2c(c1)c1c3n2CCNC3CCC1 (stereo unspecified) :: 4.44

###

# system: Transcriptional enhancer factor TEF-5 (Homo sapiens, UniProt Q99594)
# Sequence (Q99594 whole entry, the tested form may be a part): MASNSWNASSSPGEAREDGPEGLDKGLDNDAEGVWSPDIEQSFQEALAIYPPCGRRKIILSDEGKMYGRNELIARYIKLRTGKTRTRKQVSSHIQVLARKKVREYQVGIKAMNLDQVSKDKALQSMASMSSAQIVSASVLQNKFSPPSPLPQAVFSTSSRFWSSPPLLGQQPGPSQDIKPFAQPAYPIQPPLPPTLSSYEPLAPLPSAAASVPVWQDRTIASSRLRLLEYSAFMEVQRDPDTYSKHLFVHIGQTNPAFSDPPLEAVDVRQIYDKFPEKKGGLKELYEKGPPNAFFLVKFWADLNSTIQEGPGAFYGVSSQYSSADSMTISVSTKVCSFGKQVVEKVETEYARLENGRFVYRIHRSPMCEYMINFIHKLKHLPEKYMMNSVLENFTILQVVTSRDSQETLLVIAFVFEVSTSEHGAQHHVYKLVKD
# test_name: Inhibition of Gal4-fused TEAD3 (unknown origin) interaction with YAP expressed in human HeLa cells assessed as basal transcriptional activity level after 6 hrs by nanoluciferase reporter gene assay
quantity: IC50 (µM)

1. Cc1ccc2c(c1)c1c3n2CCNC3CCC1 (stereo unspecified) [PIRLINDOLE] :: 44

###

# test_name: Inhibition of TEAD in rat VSMC assessed as reduction in CTGF m-RNA expression incubated for 2 hrs followed by compound wash out and re-treatment for 4 hrs by NanoGlo assay
quantity: EC50 (µM)

1. Cc1ccc2c(c1)c1c3n2CCNC3CCC1 (stereo unspecified) :: 58

###

# test_name: Inhibition of TEAD (unknown origin) expressed in human HeLa cells after 6 hrs by nanoluciferase reporter gene assay
# Type: cell-based
quantity: IC50 (µM)

1. Cc1ccc2c(c1)c1c3n2CCN(C[C@H](O)CN2CCN(C(=O)c4ccco4)CC2)[C@@H]3CCC1 :: 110
2. Cc1ccc2c(c1)c1c3n2CCNC3CCC1 (configuration not stated) :: 70

###

# Tested on: HeLa
# test_name: Cytotoxicity against human HeLa cells assessed as reduction in cell viability by measuring ethidium homodimer-1 uptake at 100 uM preincubated for 10 mins followed by ethidium homodimer-1 addition measured after 10 mins by fluorescence assay
# Assay type: cell-based
quantity: Activity

1. Cc1ccc2c(c1)c1c3n2CCN(C[C@H](O)CN2CCN(C(=O)c4ccco4)CC2)[C@@H]3CCC1 :: Non-Toxic
2. CCc1nc(C)nc(Oc2ccc(OCCOc3ccc(C)cc3C)nn2)n1 :: Non-Toxic
3. COc1ccc2nc(NC3=NCN(Cc4ccco4)CN3)nc(C)c2c1 :: Non-Toxic
4. O=C(NCCn1ncc2c(N3CCN(c4ncccn4)CC3)ncnc21)C12CC3CC(CC(C3)C1)C2 :: Non-Toxic

###

# Tested on: HeLa
# test_name: Inhibition of TEAD (unknown origin) expressed in human HeLa cells at 100 uM after 6 hrs by nanoluciferase reporter gene assay relative to control
# Assay type: cell-based
quantity: inhibition

1. CCc1nc(C)nc(Oc2ccc(OCCOc3ccc(C)cc3C)nn2)n1 :: > 60%
2. Cc1ccc2c(c1)c1c3n2CCN(C[C@H](O)CN2CCN(C(=O)c4ccco4)CC2)[C@@H]3CCC1 :: > 60%
3. O=C(NCCn1ncc2c(N3CCN(c4ncccn4)CC3)ncnc21)C12CC3CC(CC(C3)C1)C2 :: > 60%
4. COc1ccc2nc(NC3=NCN(Cc4ccco4)CN3)nc(C)c2c1 :: > 60%
